Values from patent US20230233569A1

Listed here: items and their measured IC50.
# Tgt: KRAS Q61H (Homo sapiens, UniProt P01116+P62937, Q61H)
# Sequence (P01116 1-169 isoform P01116-2 Q61H limits assumed, one chain of several): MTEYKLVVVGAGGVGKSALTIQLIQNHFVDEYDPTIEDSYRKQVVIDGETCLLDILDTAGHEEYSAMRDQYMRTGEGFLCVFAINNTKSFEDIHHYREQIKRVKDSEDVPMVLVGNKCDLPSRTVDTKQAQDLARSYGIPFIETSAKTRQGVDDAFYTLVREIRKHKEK
# Assay Info: Disruption of BRAF RBD interaction with Ras (FRET / MOA assay, with Cyclophilin A)
# Format: biochemical
# Test Parameters: KRAS Q61H; read-out: KRAS Q61H FRET data IC50

[
  {
    "Compound": "CCn1c(-c2cc(N3CCN(C)CC3)cnc2[C@H](C)OC)c2c3cc(ccc31)-c1csc(n1)C[C@H](NC(=O)[C@H](C(C)C)N(C)C(=O)N1CC(N(C)C)C1)C(=O)N1CCC[C@H](N1)C(=O)OCC(C)(C)C2 (atropisomer, axis not shown)",
    "IC50": "10 to 100 nM"
  },
  {
    "Compound": "CCn1c(-c2cccnc2[C@H](C)OC)c2c3cc(ccc31)-c1csc(n1)C[C@H](NC(=O)[C@H](C(C)C)N(C)C(=O)N1CCC(N(C)C)CC1)C(=O)N1CCC[C@H](N1)C(=O)OCC(C)(C)C2 (atropisomer, axis not shown)",
    "IC50": "10 to 100 nM"
  },
  {
    "Compound": "C=CC(=O)N1CC[C@H](C(=O)N(C)[C@H](C(=O)N[C@H]2Cc3cc(O)cc(c3)-c3ccc4c(c3)c(c(-c3cccnc3)n4CC)CC(C)(C)COC(=O)[C@@H]3CCCN(N3)C2=O)C(C)C)C1",
    "IC50": "100 to 1000 nM"
  },
  {
    "Compound": "CCn1c(-c2cccnc2[C@H](C)OC)c2c3cc(ccc31)-c1csc(n1)C[C@H](NC(=O)N1CCC[C@@H]1COC)C(=O)N1CCC[C@H](N1)C(=O)OCC(C)(C)C2 (atropisomer, axis not shown)",
    "IC50": "10 to 100 nM"
  },
  {
    "Compound": "CCn1c(-c2cccnc2[C@H](C)OC)c2c3cc(ccc31)-c1cc(O)cc(c1)C[C@H](NC(=O)[C@H](C(C)C)N(C)C(=O)[C@@H]1OCC[C@@H]1c1cccnc1)C(=O)N1CCC[C@H](N1)C(=O)OCC(C)(C)C2 (atropisomer, axis not shown)",
    "IC50": "< 10 nM"
  },
  {
    "Compound": "CCn1c(-c2cc(N3CCN(C)CC3)cnc2[C@H](C)OC)c2c3cc(ccc31)-c1csc(n1)C[C@H](NC(=O)[C@H](C(C)C)N(C)C(=O)N1CCC13CCN(C)CC3)C(=O)N1CCC[C@H](N1)C(=O)OCC(C)(C)C2 (atropisomer, axis not shown)",
    "IC50": "10 to 100 nM"
  },
  {
    "Compound": "CCn1c(-c2cccnc2[C@H](C)OC)c2c3cc(ccc31)-c1csc(n1)C[C@H](NC(=O)[C@H](C(C)C)N(C)C(=O)N1CC([C@@H](C)CO)C1)C(=O)N1CCC[C@H](N1)C(=O)OCC(C)(C)C2 (single isomer, unassigned)",
    "IC50": "10 to 100 nM"
  },
  {
    "Compound": "C=CC(=O)N(C)C1CCN(C(=O)N(C)[C@H](C(=O)N[C@H]2Cc3nc(cs3)-c3ccc4c(c3)c(c(-c3cccnc3[C@H](C)OC)n4CC)CC(C)(C)COC(=O)[C@@H]3CCCN(N3)C2=O)C(C)C)C1 (some centres unmarked)",
    "IC50": "10 to 100 nM"
  }
]

###

Listed here: items and their measured IC50.
# Tgt: NRAS Q61K (Homo sapiens, UniProt P01111+P62937, Q61K)
# Sequence (P01111 whole entry Q61K, one chain of several): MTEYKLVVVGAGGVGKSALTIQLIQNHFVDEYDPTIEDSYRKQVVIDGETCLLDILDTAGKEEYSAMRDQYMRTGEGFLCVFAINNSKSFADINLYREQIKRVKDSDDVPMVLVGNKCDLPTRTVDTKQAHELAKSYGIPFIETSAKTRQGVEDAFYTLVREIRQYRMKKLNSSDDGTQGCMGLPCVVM
# Assay Info: Ras-Raf disruption / FRET / MOA assay (BRAF RBD)
# Format: biochemical
# Description: Disruption of […] Ras-binding Domain (BRAF^RBD) Interaction with K-Ras by Compounds of the Invention (also Called a FRET Assay or an MOA Assay) Note—The following protocol describes a procedure for monitoring disruption of K-Ras G12C (GMP-PNP) binding to BRAF^RBD by a compound of the invention. This protocol may also be executed substituting other Ras proteins or nucleotides, such as K-Ras G12D and K-Ras G13D. […]

[
  {
    "Compound": "CCn1c(-c2cccnc2[C@H](C)OC)c2c3cc(ccc31)-c1cc(O)cc(c1)C[C@H](NC(=O)[C@H](C(C)C)N(C)C(=O)CN(C)C(=O)[C@]1(C)CN1)C(=O)N1CCC[C@H](N1)C(=O)OCC(C)(C)C2",
    "IC50": "100 to 1000 nM"
  },
  {
    "Compound": "CCn1c(-c2cc(N3CCN(C)CC3)cnc2[C@H](C)OC)c2c3cc(ccc31)-c1cc(O)cc(c1)C[C@H](NC(=O)[C@H](C1CCCC1)N(C)C(=O)CN(C)C(=O)[C@H]1CN1)C(=O)N1CCC[C@H](N1)C(=O)OCC(C)(C)C2",
    "IC50": "100 to 1000 nM"
  },
  {
    "Compound": "CCn1c(-c2cccnc2[C@H](C)OC)c2c3cc(ccc31)-c1cc(O)cc(c1)C[C@H](NC(=O)[C@H](C(C)C)N(C)C(=O)CN(C)C(=O)[C@H]1CN1CC1COC1)C(=O)N1CCC[C@H](N1)C(=O)OCC(C)(C)C2 (some centres unmarked)",
    "IC50": "100 to 1000 nM"
  },
  {
    "Compound": "CCn1c(-c2cccnc2[C@H](C)OC)c2c3cc(ccc31)-c1cc(O)cc(c1)C[C@H](NC(=O)[C@H](C(C)C)N(C)C(=O)CN(C)C(=O)[C@H]1CN1CC1(C)COC1)C(=O)N1CCC[C@H](N1)C(=O)OCC(C)(C)C2 (some centres unmarked)",
    "IC50": "100 to 1000 nM"
  },
  {
    "Compound": "CCn1c(-c2cccnc2[C@H](C)OC)c2c3cc(ccc31)-c1cc(O)cc(c1)C[C@H](NC(=O)[C@H](C(C)C)N(C)C(=O)CN(C)C(=O)[C@@H]1N[C@H]1C(F)(F)F)C(=O)N1CCC[C@H](N1)C(=O)OCC(C)(C)C2",
    "IC50": "10 to 100 nM"
  },
  {
    "Compound": "CCn1c(-c2cccnc2[C@H](C)OC)c2c3cc(ccc31)-c1cc(O)cc(c1)C[C@H](NC(=O)[C@H](C(C)C)N(C)C(=O)CN(C)C(=O)[C@H]1CN1CCCC#N)C(=O)N1CCC[C@H](N1)C(=O)OCC(C)(C)C2 (some centres unmarked)",
    "IC50": "100 to 1000 nM"
  },
  {
    "Compound": "CCn1c(-c2cccnc2[C@H](C)OC)c2c3cc(ccc31)-c1cc(O)cc(c1)C[C@H](NC(=O)[C@H](C(C)C)N(C)C(=O)CN(C)C(=O)[C@H]1N[C@@H]1C(F)(F)F)C(=O)N1CCC[C@H](N1)C(=O)OCC(C)(C)C2",
    "IC50": "100 to 1000 nM"
  },
  {
    "Compound": "CCn1c(-c2cccnc2[C@H](C)OC)c2c3cc(ccc31)-c1cc(O)cc(c1)C[C@H](NC(=O)[C@H](C(C)C)N(C)C(=O)C13CC(CN1C(=O)[C@H]1CN1)C3)C(=O)N1CCC[C@H](N1)C(=O)OCC(C)(C)C2",
    "IC50": "1000 to 10000 nM"
  }
]

###

# Tgt: KRAS G12C (Homo sapiens, UniProt P01116+P62937, G12C)
# Sequence (P01116 1-169 isoform P01116-2 G12C limits assumed): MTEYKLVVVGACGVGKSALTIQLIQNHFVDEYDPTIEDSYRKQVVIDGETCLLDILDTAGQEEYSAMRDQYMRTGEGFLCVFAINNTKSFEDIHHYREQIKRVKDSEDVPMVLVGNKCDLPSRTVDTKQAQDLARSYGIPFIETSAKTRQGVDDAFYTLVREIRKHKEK
# Sequence (P62937 whole entry): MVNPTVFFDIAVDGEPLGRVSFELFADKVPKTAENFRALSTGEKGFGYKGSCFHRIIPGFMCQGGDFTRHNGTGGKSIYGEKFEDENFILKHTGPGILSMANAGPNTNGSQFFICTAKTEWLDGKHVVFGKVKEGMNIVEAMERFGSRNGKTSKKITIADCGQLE
# Assay Info: Ras-Raf disruption / FRET / MOA assay (BRAF RBD)
# Format: biochemical
# Test Parameters: Ras-Raf disruption, with Cyclophilin A; read-out: KRAS G12C FRET data IC50
pIC50: −log10 of the molar value.
Measured Parameter: pIC50

[
  {
    "Molecule": "CCn1c(-c2cccnc2[C@H](C)OC)c2c3cc(ccc31)-c1cc(O)cc(c1)C[C@H](NC(=O)[C@H](C(C)C)N1CCC3(CCN(C(=O)[C@@H]4CN4)C3)C1=O)C(=O)N1CCC[C@H](N1)C(=O)OCC(C)(C)C2 (stereo partly shown)",
    "Measured Parameter": "pIC50",
    "Result": "> 8.00"
  },
  {
    "Molecule": "CCn1c(-c2cccnc2[C@H](C)OC)c2c3cc(ccc31)-c1cc(O)cc(c1)C[C@H](NC(=O)[C@H](C(C)C)N(C)C(=O)N1CCN(C(=O)[C@@H]3CN3)C(=O)C1)C(=O)N1CCC[C@H](N1)C(=O)OCC(C)(C)C2 [Example 194]",
    "Measured Parameter": "pIC50",
    "Result": "6.00 to 7.00"
  },
  {
    "Molecule": "CCn1c(-c2cccnc2[C@H](C)OC)c2c3cc(ccc31)-c1csc(n1)C[C@H](NC(=O)[C@H](C(C)C)N(C)C(=O)N(C)C1CN(C(=O)[C@H]3CN3)C1)C(=O)N1CCC[C@H](N1)C(=O)OCC(C)(C)C2",
    "Measured Parameter": "pIC50",
    "Result": "7.00 to 8.00"
  },
  {
    "Molecule": "CCn1c(-c2cccnc2[C@H](C)OC)c2c3cc(ccc31)-c1cc(O)cc(c1)C[C@H](NC(=O)[C@H](C(C)C)N(C)C(=O)[C@@H]1CCN(C(=O)[C@H]3CN3)C1)C(=O)N1CCC[C@H](N1)C(=O)OCC(C)(C)C2 (atropisomer, axis not shown)",
    "Measured Parameter": "pIC50",
    "Result": "> 8.00"
  }
]
